Reported IC50, Sodium-dependent serotonin transporter (Homo sapiens, UniProt P31645).
API: value field is a number in µM; no unit string.

IC50 for CN(C)C[C@H]1C[C@@H]1c1c[nH]c2ccc(F)cc12 (racemic) is 0.0041

Lab note: measured IC50 of CN(C)CC1CC1c1ccc2ccccc2c1 (single isomer, unassigned; (-)) was 0.14

Data point: CCN(CC)CC1CC1c1ccc2ccccc2c1 (stereo not drawn) ; IC50 = 0.55

get_value(item= CN(C)CC1CC1c1cccc2ccccc12 (stereo in doubt; 9b) , readout=IC50) returns 0.015

Note to self: IC50 recorded for CN(C)CC1CC1c1csc2ccccc12 (stereo in doubt; (-)-6) was 0.15

Short answer for CN(C)C[C@H]1C[C@@H]1c1c[nH]c2ccc(C#N)cc12 : IC50 was 0.00048

The recorded IC50 for CN(C)CC1CC1c1c[nH]c2ccc(C#N)cc12 (racemic) is 0.0011

Lookup result for CN(C)CC1CC1c1ccc2cc(C#N)c(C#N)cc2c1 (stereo not drawn) ; measured IC50: 0.0059

Per the record, CN(Cc1ccccc1)CC1CC1c1cccc2cc(C#N)ccc12 (stereo not drawn) has IC50 of 0.016

The molecule listed as CNCC1CC1c1ccc2ccccc2c1 (stereo not drawn) has a reported IC50 of 0.052

What the record says about CN(C)CC1CC1c1cccc2c(C#N)cccc12 (stereo not drawn) : IC50 is 0.048

Lab book: IC50 of CN(C)CC1CC1c1cnc2ccccc2c1 (stereo not drawn) noted as 0.13

Reported IC50 of CNCC1CC1c1cccc2cc(C#N)ccc12 (stereo not drawn) : 0.017

Field IC50 (entry CN(C)CC1CC1c1c[nH]c2ncccc12 (racemic) ) reads 0.41

// IC50 lookup, molecule = CN(C)CC1CC1c1cccc2ccccc12 (single isomer, unassigned; (-)) , result: 0.17

So, CN(C)CC1CC1c1ccc2ccc(C#N)cc2c1 (racemic) ? Its IC50 was 0.083

get_value(item= CN(C)C[C@H]1C[C@@H]1c1c[nH]c2ccccc12 (racemic) , readout=IC50) returns 0.099

The recorded IC50 for entry N#Cc1ccc2c(C3CC3CN3CCCC3)cccc2c1 (stereo not drawn) equals 0.051

Consider CN(C)CC1CC1c1ccc2cc(C#N)ccc2c1 (stereo not drawn) . Its measured IC50 is 0.013

For reference, reported IC50 for CN(C)CC1CC1c1cccc2ccccc12 (single isomer, unassigned; (+)) stands at 0.018

Quick note, IC50 for CN(C)CC1CC1c1n[nH]c2ccc(C#N)cc12 (racemic) landed at 0.071
